The origin of these recorded values is PubChem BioAssay AID2060899.

- Test system: 565726-208-R1-J5-PDC complex spheroids, growth inhibition;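 also: spheroids exposed to compounds for seven days before readout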
- Assay comment: Anticancer human tumor 565726-208-R1-J5-PDC patient-derived pancreatic adenocarcinoma cell line growth inhibition [RAS]
- Measurement setup: second compound 0.03 µM; first compound 1 µM; stronger effect = lower value
# label = yes if viability, T/C < 20% else no

Compound	Assigned category
CC(Nc1ccc2c(c1)OCCn1cc(N3C(=O)OCC3C(F)F)nc1-2)C(N)=O (stereo not given) + CCn1c(-c2cc(N3CCN(C)CC3)cnc2C(C)OC)c2c3cc(ccc31)-c1csc(n1)CC(NC(=O)C1CC1C)C(=O)N1CCCC(N1)C(=O)OCC(C)(C)C2	no
CC(=O)OC12COC1CC(O)C1(C)C(=O)C(O)C3=C(C)C(OC(=O)C(O)C(NC(=O)OC(C)(C)C)c4ccccc4)CC(O)(C(OC(=O)c4ccccc4)C21)C3(C)C (stereo not given) + CCn1c(-c2cc(N3CCN(C)CC3)cnc2C(C)OC)c2c3cc(ccc31)-c1csc(n1)CC(NC(=O)C1CC1C)C(=O)N1CCCC(N1)C(=O)OCC(C)(C)C2	yes
CCC(CC)c1cc(NC2CCC(N)C2)n2nccc2n1 (stereo not given) + CCn1c(-c2cccnc2C(C)OC)c2c3cc(ccc31)N1CCOC(CC(NC(=O)C(C(C)C)N(C)C(=O)C3(F)CCN(C(=O)C#CC(C)(C)N(C)C)CC3)C(=O)N3CCCC(N3)C(=O)OCC(C)(C)C2)C1	no
Cc1nc(N2CCC3(CC2)COC(C)C3N)c(CO)nc1Sc1ccnc(N)c1Cl (stereo not given) + CCn1c(-c2cc(N3CCN(C)CC3)cnc2C(C)OC)c2c3cc(ccc31)-c1csc(n1)CC(NC(=O)C1CC1C)C(=O)N1CCCC(N1)C(=O)OCC(C)(C)C2	yes
C=CC(=O)N1CCN(c2nc(OCC3CCCN3C)nc3c(F)c(-c4nc(N)cc(C)c4C(F)(F)F)c(Cl)cc23)C(C)C1 (stereo not given) + CCn1c(-c2cc(N3CCN(C)CC3)cnc2C(C)OC)c2c3cc(ccc31)-c1csc(n1)CC(NC(=O)C1CC1C)C(=O)N1CCCC(N1)C(=O)OCC(C)(C)C2	no
CC(Nc1ccc2c(c1)OCCn1cc(N3C(=O)OCC3C(F)F)nc1-2)C(N)=O (stereo not given) + CCn1c(-c2cccnc2C(C)OC)c2c3cc(ccc31)N1CCOC(CC(NC(=O)C(C(C)C)N(C)C(=O)C3(F)CCN(C(=O)C#CC(C)(C)N(C)C)CC3)C(=O)N3CCCC(N3)C(=O)OCC(C)(C)C2)C1	no

Query: For this compound, is viability, T/C lower than 20%? O=C(c1ccc(F)c(F)c1Nc1ccc(I)cc1F)N1CC(O)([C@@H]2CCCCN2)C1 + CCn1c(-c2cc(N3CCN(C)CC3)cnc2C(C)OC)c2c3cc(ccc31)-c1csc(n1)CC(NC(=O)C1CC1C)C(=O)N1CCCC(N1)C(=O)OCC(C)(C)C2
Response: yes

Query: For this compound, is viability, T/C lower than 20%? CC(=O)OC12COC1CC(O)C1(C)C(=O)C(O)C3=C(C)C(OC(=O)C(O)C(NC(=O)OC(C)(C)C)c4ccccc4)CC(O)(C(OC(=O)c4ccccc4)C21)C3(C)C (stereo not given) + CCn1c(-c2cccnc2C(C)OC)c2c3cc(ccc31)N1CCOC(CC(NC(=O)C(C(C)C)N(C)C(=O)C3(F)CCN(C(=O)C#CC(C)(C)N(C)C)CC3)C(=O)N3CCCC(N3)C(=O)OCC(C)(C)C2)C1
Response: yes

Query: For this compound, is viability, T/C lower than 20%? CC(C)NCC(C(=O)N1CCN(c2ncnc3c2C(C)CC3O)CC1)c1ccc(Cl)cc1 (stereo not given) + CCn1c(-c2cccnc2C(C)OC)c2c3cc(ccc31)N1CCOC(CC(NC(=O)C(C(C)C)N(C)C(=O)C3(F)CCN(C(=O)C#CC(C)(C)N(C)C)CC3)C(=O)N3CCCC(N3)C(=O)OCC(C)(C)C2)C1
Response: no

Query: For this compound, is viability, T/C lower than 20%? NC1c2ccccc2OC12CCN(c1cnc3c(N4CCCc5ncccc54)n[nH]c3n1)CC2 (stereo not given) + CCn1c(-c2cc(N3CCN(C)CC3)cnc2C(C)OC)c2c3cc(ccc31)-c1csc(n1)CC(NC(=O)C1CC1C)C(=O)N1CCCC(N1)C(=O)OCC(C)(C)C2
Response: yes
